Assay: AUC in Sprague-Dawley rat at 2 mg/kg, po
Type: ADME, organism-based
Set-up: dose 2 mg/kg, route oral
Details: plasma
experimentalEndpoint: AUC (µM·h)
# output: bare number, implied unit µM·h

q: Quick one: AUC of `O=C(O)[C@H]1CC[C@H](Oc2ccc(-c3ccc(-c4nc5ccc(F)cc5[nH]4)cn3)cn2)CC1` ?
a: 4.47

----------
Test: Ratio of drug uptake in duodenum to blood of mouse at 3 mg/kg, po at 2 to 25 hrs
Format: ADME, organism-based
Design: dose 3 mg/kg, route oral
experimentalEndpoint: Kp

q: Quick one: Kp of `O=C(O)[C@H]1CC[C@@H](Oc2ccc(-c3ccc(-c4nc5ccccc5[nH]4)cn3)cn2)CC1` ?
a: > 30

----------
Test: Cmax in beagle dog at 2 mg/kg, po
Type: ADME, organism-based, Canis lupus familiaris
Design: dose 2 mg/kg, route oral
Details: in vivo
experimentalEndpoint: Cmax (nM)
# output: bare number, implied unit nM

q: Quick one: Cmax of `O=C(O)[C@H]1CC[C@@H](Oc2ccc(-c3ccc(-c4nc5ccc(F)cc5[nH]4)cn3)cn2)CC1` ?
a: 60

----------
Test: Lipophilicity, log D of the compound by HPLC analysis
Format: physicochemical
Form field: logD (one value per entry).
Lab note: write the figure by itself, no unit.

Worked set:
O=C(O)[C@H]1CC[C@@H](Oc2ccc(-c3ccc(-c4nc5ccc(Cl)cc5[nH]4)cn3)cn2)CC1 : 1.42
O=C(O)[C@H]1CC[C@H](Oc2ccc(-c3ccc(-c4nc5cc(C(F)(F)F)ccc5[nH]4)cn3)cn2)CC1 : 1.72
O=C(O)C[C@H]1CC[C@H](c2ccc(-c3ccc(-c4nc5ccc(C(F)(F)F)cc5[nH]4)cn3)cc2)CC1 : 1.97

q: Quick one: logD of `O=C(O)[C@H]1CC[C@H](Oc2ccc(-c3ccc(-c4nc5cc(Cl)ccc5[nH]4)cn3)cn2)CC1` ?
a: 1.43

q: Then `O=C(O)[C@H]1CC[C@@H](Oc2ccc(-c3ccc(-c4nc5ccc(F)cc5[nH]4)cn3)cn2)CC1` ?
a: 1.02

q: Then `O=C(O)[C@H]1CC[C@@H](Oc2ccc(-c3ccc(-c4nc5cc(F)c(F)cc5[nH]4)cn3)cn2)CC1` ?
a: 1.28

q: Then `O=C(O)[C@H]1CC[C@@H](Oc2ccc(-c3ccc(-c4nc5cc(C(F)(F)F)ccc5[nH]4)cn3)cn2)CC1` ?
a: 1.62

q: Then `O=C(O)C[C@H]1CC[C@H](c2ccc(-c3ccc(-c4nc5cc(Cl)ccc5[nH]4)cn3)cc2)CC1` ?
a: 1.8

----------
Experiment: Biodistribution in mouse jejunum at 3 mg/kg, po at 5 hrs
Type: ADME, organism-based
Set-up: dose 3 mg/kg, route oral
Details: read-out: Drug uptake
experimentalEndpoint: concentration at 5 h (µM)
# output: bare number, implied unit µM

q: Quick one: concentration at 5 h of `O=C(O)[C@H]1CC[C@@H](Oc2ccc(-c3ccc(-c4nc5ccccc5[nH]4)cn3)cn2)CC1` ?
a: 6.01

----------
Assay: Bioavailability in beagle dog at 0.55 mg/kg, iv
Assay type: ADME, organism-based, Canis lupus familiaris
Conditions: in vivo
experimentalEndpoint: bioavailability (%)
# output: bare number, implied unit %

q: Quick one: bioavailability of `O=C(O)[C@H]1CC[C@@H](Oc2ccc(-c3ccc(-c4nc5ccc(F)cc5[nH]4)cn3)cn2)CC1` ?
a: 2
